test system: Fibroblast; assay: Incucyte cell viability with human fibroblast; type: toxicity, cell-based; details: 12 h, 10 µM, compound concentration 10 uM, replicate number 2; further: unitless GR value; below 1 slowed growth and below 0 cell loss
Measured Growth Rate by item
Reply with just the number.

c1cc(-c2cnn3cc(-c4ccc(N5CCNCC5)cc4)cnc23)c2cccnc2c1	-0.91
CC[N+](CC)(CC)CCOc1ccc(/C=C/c2ccccc2)cc1.[I-] [STILONIUM IODIDE]	0.37
O=C(O)[C@]1(Cc2cccc(Nc3nccs3)n2)CC[C@@H](Oc2cccc(Cl)c2F)CC1	0.85

Task item: I have this compound here, Cc1c(CN2CCC3(CC2)CN(c2ncnc4sc(CC(F)(F)F)cc24)C3)ccc2c1cc(C#N)n2CC(N)=O , and I need its recorded Growth Rate.
Reply: -0.34

Data credit: ChEMBL document CHEMBL5303304
